Assay: Quantitative High-Throughput drug screen in 47 multiple myeloma cell lines against the NCATS MIPE library collection: JIM3_ECACC cell viability assay (AID 1918963; note: nearly all actives have a fitted effect of over 35% in size)
Details: JIM3 myeloma viability, CellTiter-Glo ATP, 48 h; series mostly up to 45.8 µM
Records with an inconclusive call do not appear. Activity calls are given as the source filed them. Calls come from the whole dose curve; as a rule, active = well fitted cell-killing curve with a large enough effect; inconclusive = small, poorly fitted or top-dose-only effect; inactive = no such curve, though single readings can be large or run the other way.
Pick one and only one: yes = active, no = inactive

MOLECULE	GROUP LABEL
CC(C)c1cc(C(C)C)c(CC(=O)NS(=O)(=O)Oc2c(C(C)C)cccc2C(C)C)c(C(C)C)c1	yes
Cc1ccc2nc(NCCN)c3ncc(C)n3c2c1	yes
NC1=N[C@H]2[C@H](CS[C@H]2CCCCC(=O)O)N1	no
CCCCC(=O)O[C@]1(C(=O)CO)[C@@H](C)C[C@H]2[C@@H]3CCC4=CC(=O)C=C[C@]4(C)[C@@]3(F)[C@@H](O)C[C@@]21C	no
C[C@H]1C[C@H]2[C@@H]3CCC4=CC(=O)C=C[C@]4(C)[C@@H]3C(=O)C[C@]2(C)[C@@]1(O)C(=O)CO	no
COC1=C2C[C@@H](C)C[C@H](OC)[C@@H](O)[C@@H](C)C=C(C)[C@H](OC(N)=O)[C@@H](OC)C=CC=C(C)C(=O)NC(=CC1=O)C2=O	yes
COc1cc(OC)c(C=CS(=O)(=O)Cc2ccc(OC)c(NCC(=O)O)c2)c(OC)c1	yes
C=C(C)[C@@H]1CC[C@]2(C(=O)O)CC[C@]3(C)[C@H](CC[C@@H]4[C@@]5(C)CC[C@H](O)C(C)(C)[C@@H]5CC[C@]43C)[C@@H]12	no

Request: Hi team, can someone confirm the assay call for CCCNC(=O)[C@H]1O[C@H]1C(=O)N[C@H](C(=O)N1CCC[C@@H]1C(=O)OC)C(C)CC (stereo not given in full) ?
Result: yes

* * *

Tested on: HaCat
Test: Cytotoxic Profiling of Annotated Libraries Using Quantitative High-Throughput Screening (AID 1296008); note: nearly all actives have a fitted effect of over 60% in size; note: potency is the fitted concentration of half-maximal effect
Conditions: Five cell lines viability, CellTiter-Glo ATP luminescence, 48-72 h
Procedure: Cell-based phenotypic screening is a commonly used approach to discover biological pathways, novel drug targets, chemical probes and high-quality hit-to-lead molecules. […] A pintool (Kalypsys) was used to transfer 23 nL of compound solution to the 1536-well assay plates. […] Plates were left at room temperature for 10 min before imaging the ATP-coupled luminescence using a ViewLux microplate imager (PerkinElmer, Waltham, MA).
Inconclusive results are not listed. The source made the active and inactive calls. Calls come from the whole dose curve; as a rule, active = well fitted inhibition curve with a large enough effect; inconclusive = small, poorly fitted or top-dose-only effect; inactive = flat fitted curve, though single readings scatter.
ENDPOINT: Potency

Field: example entries. Status: answers known.
COMPOUND	Potency
CCC(C=C[C@@H]1OC(=O)C=C[C@H]1C)=C[C@H](C)CC=CC(C)=C[C@@H](C)C(=O)[C@@H](C)[C@H](O)[C@@H](C)CC(C)=CC(=O)O	110 nM (active)
Cc1ccc(O)c(C(CCN(C(C)C)C(C)C)c2ccccc2)c1 (centres undefined)	inactive
COc1ccc(Nc2cc(-c3cnc(N)nc3)nc(N3CCOCC3)n2)cn1	2640 nM (active)
N#CC(=C(N)Sc1ccc(N)cc1)c1ccccc1C(F)(F)F	1660 nM (active)
Nc1ccn(C[C@@H](CO)OCP(=O)(O)O)c(=O)n1	inactive

Please go through the list and note Potency for each compound.
1. CC[C@H]1OC(=O)[C@H](C)[C@@H](O[C@H]2C[C@@](C)(OC)[C@@H](O)[C@H](C)O2)[C@H](C)[C@@H](O[C@@H]2O[C@@H](C)C[C@H](N(C)C)[C@@H]2O)[C@](C)(O)C[C@@H](C)C(=O)[C@H](C)[C@@H](O)[C@]1(C)O
2. N#Cc1ccc(COC[C@H]2O[C@@H](n3c(NCc4ccc(Cl)c(Cl)c4)nc4c(N)ncnc43)[C@@H](O)[C@@H]2O)cc1

Result:
1. inactive
2. 11800 nM (active)

I would be grateful if you could provide Potency for each of the following entries.
1. C[C@@H]1C(=O)O[C@H]2CC34[C@H]5C[C@@H](C(C)(C)C)C36[C@H](OC(=O)[C@@H]6O)O[C@@]4(C(=O)O5)[C@]21O (some centres undefined)
2. CCCNC(=O)[C@H]1O[C@H]1C(=O)N[C@H](C(=O)N1CCC[C@@H]1C(=O)OC)C(C)CC (some centres undefined)
3. C[C@H](NC(=O)Cc1cc(F)cc(F)c1)C(=O)N[C@H](C(=O)OC(C)(C)C)c1ccccc1
4. CCCCOc1ccc(C(=O)Nc2ccc(F)cc2F)cc1
5. CS[C@H]1SC[C@@H]2C(=O)N(C)[C@H](C(C)C)C(=O)OC[C@H](NC(=O)c3cnc4ccccc4n3)C(=O)N[C@H](C)C(=O)N(C)[C@@H]1C(=O)N(C)[C@H](C(C)C)C(=O)OC[C@H](NC(=O)c1cnc3ccccc3n1)C(=O)N[C@H](C)C(=O)N2C

Result:
1. inactive
2. inactive
3. inactive
4. inactive
5. 11.8 nM (active)

Field: Potency. Fill in for each record below.
1. C[C@@]12C(=O)OC(=O)[C@@]1(C)C1CCC2O1
2. C[C@@H](NCc1cc2ccccc2[nH]1)c1cccc2ccccc12

Result:
["26400 nM (active)", "inactive"]

* * *

Experiment: qHTS of pediatric cancer cell lines to identify multiple opportunities for drug repurposing: Confirmatory screen for SJ-GBM2 cells (AID 1347116);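 note: 48 hour compound exposure; nearly all actives have a fitted effect of over 60% in size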
Conditions: SJ-GBM2 glioblastoma cells, viability; series mostly up to 45.9 µM
Inconclusive results are not listed. Active and inactive are the calls of the source. Calls follow the shape of the dose curve; as a rule, active = well fitted cell-killing curve with a large enough effect; inconclusive = small, poorly fitted or top-dose-only effect, or effect the other way; inactive = no such curve, though single readings can be large or run the other way.
Response enum: 1.0 = active, 0.0 = inactive

COMPOUND	GROUP LABEL
CC(C=CC1=C(C)CCCC1(C)C)=CC=CC(C)=CC(=O)Nc1ccc(O)cc1	1.0
CC(C)(O)Cn1c(NC(=O)c2ccc(-c3cn[nH]c3)s2)nc2cc(CN3CCOCC3)ccc21	1.0
NC(=O)Nc1sc(-c2ccc(F)cc2)cc1C(N)=O	0.0
COc1ccc(C=Cc2cc(OC)c(OC)c(OC)c2)cc1NC(=O)[C@H](N)CO	1.0
COc1ccc2c(c1OC)C(=O)OC2[C@H]1c2c(cc3c(c2OC)OCO3)CCN1C (some centres undefined)	0.0

Kindly review the next compound as well.
Request: Check the results log: what was the call for `C=CC(=O)Nc1ccc2ncnc(Nc3ccc(OCc4cccc(F)c4)c(Cl)c3)c2c1` ?
Result: 1.0

* * *

What Potency was measured for each of the following?
Assay: Quantitative High-Throughput drug screen in 47 multiple myeloma cell lines against the NCATS MIPE library collection: KMS20_JCRB cell viability assay (AID 1918973); note: potency is the fitted concentration of half-maximal effect; nearly all actives have a fitted effect of over 45% in size
Settings: CellTiter-Glo ATP, 48 h; series mostly up to 45.8 µM
Inconclusive results are not listed. Active and inactive are the calls of the source. Calls follow the shape of the dose curve; as a rule, active = well fitted cell-killing curve with a large enough effect; inconclusive = small, poorly fitted or top-dose-only effect, or effect the other way; inactive = no such curve, though single readings can be large or run the other way.

Examples with answers:
SMILES INPUT	Potency
Cc1cnc(Nc2ccc(N3CCN(C)CC3)cc2)nc1Nc1cccc(S(=O)(=O)NC(C)(C)C)c1	7430 nM (active)
C[C@@]12C(=O)OC(=O)[C@@]1(C)C1CCC2O1	2640 nM (active)

I have 4 compounds here; please give me Potency for each one.
1. FC(F)c1nc2ccccc2n1-c1nc(N2CCOCC2)nc(N2CCOCC2)n1
2. O=C1NC(=O)[C@@H](c2cn3c4c(cccc24)CCC3)[C@H]1c1c[nH]c2ccccc12
3. COC[C@H](NC(=O)c1cnc(C)s1)C(=O)N[C@@H](COC)C(=O)N[C@@H](Cc1ccccc1)C(=O)[C@@]1(C)CO1
4. CC(C)n1cnc2c(NCCc3ccc(O)cc3)nc(-c3csc4ccccc34)nc21

Result:
["332 nM (active)", "105 nM (active)", "132 nM (active)", "7430 nM (active)"]

* * *

Assay: qHTS of pediatric cancer cell lines to identify multiple opportunities for drug repurposing: Confirmatory screen for U-2 OS cells (AID 1347122); note: nearly all actives have a fitted effect of over 65% in size
Details: U-2 OS osteosarcoma cell viability; series mostly up to 45.9 µM
Records with an inconclusive call do not appear. Calls of active or inactive are those of the source. Calls follow the shape of the dose curve; as a rule, active = well fitted cell-killing curve with a large enough effect; inconclusive = small, poorly fitted or top-dose-only effect; inactive = no such curve, though single readings can be large or run the other way.
Output constraint: value belongs to active, inactive

COMPOUND	GROUP LABEL
CC1(C)O[C@@H]2C[C@H]3[C@@H]4CCC5=CC(=O)C=C[C@]5(C)[C@@H]4[C@@H](O)C[C@]3(C)[C@]2(C(=O)CO)O1	inactive

Request: Test call for this compound, please: `N#Cc1c(NC(=O)c2cccc3ccccc23)sc2c1CCCC2`
Result: active

Request: Please share the test call associated with `COC1=C2C[C@@H](C)C[C@H](OC)[C@@H](O)[C@@H](C)C=C(C)[C@H](OC(N)=O)[C@@H](OC)C=CC=C(C)C(=O)NC(=CC1=O)C2=O` .
Result: active

Request: Fill in: this test's call for CC(C(C)N1CC(=O)NC(=O)C1)N1CC(=O)NC(=O)C1 (stereo not given) is ___
Result: inactive

Request: Fill in: this test's call for `O=C(O)c1ccc(Nc2ncc3c(n2)-c2ccc(Cl)cc2C(c2c(F)cccc2F)=NC3)cc1` is ___
Result: active

Source: PubChem BioAssay (NCATS)
